Origin of measurements: patent US11033535B2

# experiment-description: Pharmacokinetic evaluation following a single oral and intravenous administration
# Format: in vivo, CD1 mouse
# condition: CD1, mouse, plasma, iv, 1 mg/kg, Table 3, IV Dose: 1 mg/kg, 4 h, Mouse 1; read-out: Concentration
readout-type: concentration at 4 h (ng/mL)

INSERT INTO results (smiles_structure, numeric_result) VALUES
  ('CNCc1ccc(C[C@H](NC(C)=O)c2nnc(-c3cccc(OC(F)(F)F)c3)s2)cc1', 26.1);

---

# experiment-description: Pharmacokinetic evaluation following a single oral and intravenous administration
# Assay type: in vivo, CD1 mouse
# condition: Table 12, PO Dose: 5 mg/kg, Mouse 5
readout-type: AUClast/D (h·ng/mL per mg/kg)

INSERT INTO results (molecule, numeric_result) VALUES
  ('CC(=O)N[C@@H](Cc1ccc(CN(C)C)cc1)c1nnc(-c2cccc(OC(F)(F)F)c2)s1 [Compound 42320]', 114);

---

# experiment-description: Pharmacokinetic evaluation following a single oral and intravenous administration
# Assay type: in vivo, CD1 mouse
# condition: CD1, mouse, plasma, iv, 1 mg/kg, Table 4, IV Dose: 1 mg/kg, mean; read-out: AUClast, Mean
readout-type: AUC(0-t) (ng·h/mL)

INSERT INTO measurements (smiles_structure, readout_unit, numeric_result) VALUES
  ('CNCc1ccc(C[C@H](NC(C)=O)c2nnc(-c3cccc(OC(F)(F)F)c3)s2)cc1', 'ng·h/mL', 415);

---

# experiment-description: Pharmacokinetic evaluation following a single oral and intravenous administration
# Assay type: in vivo, CD1 mouse
# condition: CD1, mouse, plasma, po, 5 mg/kg, Table 12, PO Dose: 5 mg/kg, Mouse 5; read-out: T1/2 (converted)
readout-type: half-life (h)

INSERT INTO results (smiles_structure, readout_type, numeric_result) VALUES
  ('CC(=O)N[C@@H](Cc1ccc(CN(C)C)cc1)c1nnc(-c2cccc(OC(F)(F)F)c2)s1', 'half-life', 4.31);

---

# experiment-description: Pharmacokinetic evaluation following a single oral and intravenous administration
# Format: in vivo, CD1 mouse
# condition: CD1, mouse, plasma, po, 5 mg/kg, Table 11, PO Dose: 5 mg/kg, 4 h, Mouse 4; read-out: Concentration
readout-type: concentration at 4 h

INSERT INTO measurements (molecule, readout_type, result) VALUES
  ('CC(=O)N[C@@H](Cc1ccc(CN(C)C)cc1)c1nnc(-c2cccc(OC(F)(F)F)c2)s1 [Compound 42320]', 'concentration at 4 h', '88.4 ng/mL');

---

# experiment-description: Pharmacokinetic evaluation following a single oral and intravenous administration
# Assay type: in vivo, CD1 mouse
# condition: Table 10, IV Dose: 1 mg/kg, Mouse 3
readout-type: AUClast/D (h·ng/mL per mg/kg)

INSERT INTO results (smiles_structure, readout_type, readout_unit, numeric_result) VALUES
  ('CC(=O)N[C@@H](Cc1ccc(CN(C)C)cc1)c1nnc(-c2cccc(OC(F)(F)F)c2)s1', 'AUClast/D', 'h·ng/mL per mg/kg', 172);

---

# experiment-description: Pharmacokinetic evaluation following a single oral and intravenous administration
# Format: in vivo, CD1 mouse
# condition: CD1, mouse, plasma, po, 5 mg/kg, Table 12, PO Dose: 5 mg/kg, mean; read-out: MRTInf—obs, Mean
readout-type: MRT inf (h)

INSERT INTO results (smiles_structure, numeric_result) VALUES
  ('CC(=O)N[C@@H](Cc1ccc(CN(C)C)cc1)c1nnc(-c2cccc(OC(F)(F)F)c2)s1', 5.81);
